tested on: HOP-92 NSCLC; experiment: NCI-60 one-dose screen, 48 h (100 = growth as untreated, 0 = no growth, -100 = all killed); conditions: 10 µM
This is part of a sample that, as a whole, favours compounds with a hit. Of some 83,000 tested, about 20% had one in any assay.
observable: growth (%)
Field format: number, assumed %, no unit text.

[Q] For COc1ccc2cc(-c3nc4ccccc4s3)c(Cl)nc2c1OC , what is its reported growth?
[A] 85.3

[Q] For the compound shown here, COc1cc(NC(=O)C2=C(N3CCOCC3)/C(=C/c3ccc(Cl)cc3)CC2)cc(OC)c1OC , give the reported growth.
[A] 65.3

[Q] Given Cc1nn(-c2ccccc2)c2nc(Cl)c(C=O)c(-c3ccccc3)c12 , state its recorded growth.
[A] 65.7

[Q] I would be grateful if you could share the reported growth for COC(=O)c1cc2oc(/C=C3/SC(=S)N(N)C3=O)cc2n1Cc1ccccc1 .
[A] -69

[Q] Look up growth for this compound: CN(C)CCOc1ccccc1NC1=C(Cl)C(=O)C(Nc2ccccc2OCCN(C)C)=C(Cl)C1=O
[A] 59.9

[Q] Entry under review: O=C(O)COc1c(Cl)cc([N+](=O)[O-])cc1Cl . Reported growth?
[A] 78.5

[Q] Return reported growth; argument: C=CCN(CC=C)C(=O)[C@H](CC)[C@@H]1CC[C@@H](C)[C@@H]([C@H](C)[C@@H](O)[C@@H](C)C(=O)[C@H](CC)C2O[C@]3(C=C[C@@H](O)[C@]4(CC[C@@](C)([C@H]5CC[C@](O)(CC)[C@H](C)O5)O4)O3)[C@H](C)C[C@@H]2C)O1 (stereo partly drawn)
[A] -23.9

[Q] What value of measured growth is listed for COc1ccc(-c2cc(-c3ccc(OC)c(OC)c3)nc(SCCCC(=O)NO)n2)cc1 ?
[A] -28.6

Just for reference, PubChem BioAssay (NCI) is where these values come from.
